Reference source for all entries: paper PMC7826789

Test system: AMPK-alpha1
Construct: gene PRKAA1
EXPERIMENTAL PARAMETERS: Compound Concentration (nM):1000;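 further: KINOMEscan scanMAX binding as percent activity remaining versus control; lower means stronger binding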
MEASURED PROPERTY: Percent Control (%)
Numbers only, in %.

As a guide, the following entries are already answered.
COC(=O)Nc1nc2ccc(Oc3ccc(NC(=O)Nc4cc(C(F)(F)F)ccc4F)cc3)cc2s1.Cl [GW693917A] : 69
COc1cc(N2CCN(C(C)C)CC2)ccc1Nc1nc(Nc2ccc(F)cc2C(=O)NC[C@@H](O)CO)c2cc[nH]c2n1 [GSK1392956A] : 100
Cl.c1ccc(Cc2nc3ccc(Nc4ncnc5ccccc45)cc3[nH]2)cc1 [GR269666A] : 100

Please go through the list and note Percent Control for each molecule.
1. COc1cc2ncnc(Nc3ccc4c(cnn4Cc4ccccc4)c3)c2cc1OC.Cl [GW282449A]
2. Nc1ncnc2occ(-c3ccc(NC(=O)Nc4cc(C(F)(F)F)ccc4F)cc3)c12 [GW770249X]

Response:
1. 100
2. 100

###

Test system: MTOR
EXPERIMENTAL PARAMETERS: Compound Concentration (nM):1000
MEASURED PROPERTY: Percent Control (%)
One number for each entry, in %.

As a guide, the following entries are already answered.
Cl.O=C(O[C@H]1CN[C@H](C#Cc2cc3ncnc(Nc4ccc5c(cnn5Cc5ccccc5)c4)c3s2)C1)N1CCOCC1 [GSK200398A] : 100
CN(C)CCNC(=O)Nc1ccc(N(C)c2ccnc(Nc3ccc(CS(C)(=O)=O)cc3)n2)cc1.Cl [GW830900A] : 97
COc1cc2ncn(-c3cc(O[C@H](C)c4ccccc4Cl)c(C(N)=O)s3)c2cc1OC [GSK237701A] : 100

Please go through the list and note Percent Control for each molecule.
1. Cl.c1ccc(Cc2nc3ccc(Nc4ncnc5ccccc45)cc3[nH]2)cc1 [GR269666A]
2. O=C1Nc2ccc(C(=O)c3ccco3)cc2C1=Cc1cc(Cl)c(O)c(Cl)c1 [GW406108X]
3. COc1ccc2cc(-c3c(-c4ccncc4)nc(-c4ccc(S(C)(=O)=O)cc4C)n3C)ccc2c1 [SB-633825]
4. COc1cc2ncnc(Nc3ccc4c(cnn4Cc4ccccc4)c3)c2cc1OC.Cl [GW282449A]
5. COc1ccc2c(-c3ccnc(Nc4cccc(OC(F)(F)F)c4)n3)cnn2n1 [GW810372X]
6. C/C(Nc1ccc(S(N)(=O)=O)cc1)=C1/C(=O)Nc2ccccc21 [GW335962X]
7. COc1ccc2[nH]c3c4[nH]c5ccc(OC)cc5c4c4c(c3c2c1)C(=O)NC4=O [GW296115X]

Response:
1: 100; 2: 100; 3: 100; 4: 100; 5: 100; 6: 96; 7: 100

Please go through the list and note Percent Control for each molecule.
1. COc1cc(C=NNc2ncnc3c2cnn3-c2ccccc2)ccc1O [GW513184X]
2. COc1ccc(COc2ccc(Cc3cnc(N)nc3N)cc2OC)cc1 [GW632580X]

Response:
93
96

Query: What Percent Control appears in the records for this molecule with MTOR? CCS(=O)(=O)c1ccc(OC)c(Nc2ncc(-c3cccc(F)c3)o2)c1 [GW621970X]
Response: 100

###

So I've got a bunch of compounds here, and I need their Percent Control values.
System: WNK1
EXPERIMENTAL PARAMETERS: Compound Concentration (nM):1000
Write down the value, and be sure its unit follows.

As a guide, the following entries are already answered.
Cl.c1ccc(Cc2nc3ccc(Nc4ncnc5ccccc45)cc3[nH]2)cc1 [GR269666A] : 100%
COc1ccc(COc2ccc(Cc3cnc(N)nc3N)cc2OC)cc1 [GW632580X] : 98%

Query: Need Percent Control of COc1cccc(-c2c[nH]c3c(N/N=C/c4ccncc4)ncnc23)c1 [GW814408X] , thanks.
Response: 96%
